Below is a list of entries, each paired with its recorded fraction unbound value.
- test-method-notes: Plasma protein binding in human
- Assay type: ADME, cell-free
- measurement-context: read-out: PPB (converted)
Just the number, please.

1. C[C@@H]1CN([C@@H](C)CO)C(=O)c2cccc(NC(=O)c3ccncc3)c2O[C@@H]1CN(C)Cc1ccc(Oc2ccccc2)cc1 0.05
2. C[C@@H]1CN([C@H](C)CO)C(=O)c2cccc(NC(=O)c3ccncc3)c2O[C@H]1CN(C)Cc1ccc(Oc2ccccc2)cc1 0.01
3. C[C@H]1CN([C@@H](C)CO)C(=O)c2cccc(NC(=O)c3ccncc3)c2O[C@@H]1CN(C)Cc1ccc(Oc2ccccc2)cc1 0.01
4. C[C@@H]1CN([C@@H](C)CO)C(=O)c2cccc(NC(=O)c3ccncc3)c2O[C@H]1CN(C)Cc1ccc(Oc2ccccc2)cc1 0.01
5. C[C@H](CO)N1C[C@H](C)[C@@H](CN(C)Cc2ccc(Oc3ccccc3)cc2)Oc2c(NC(=O)c3ccncc3)cccc2C1=O 0.01
6. C[C@H]1CN([C@@H](C)CO)C(=O)c2cccc(NC(=O)c3ccncc3)c2O[C@H]1CN(C)Cc1ccc(Oc2ccccc2)cc1 0.05

Exercise: Consider the molecule shown here: C[C@@H]1CN([C@H](C)CO)C(=O)c2cccc(NC(=O)c3ccncc3)c2O[C@@H]1CN(C)Cc1ccc(Oc2ccccc2)cc1 What is its recorded fraction unbound?
Key: 0.05
